test system: IL1-induced NFκB activity; experiment: HEK-BlueIL1β NFκB Reporter Assay; assay type: cell-based; details: nM range, read-out: IC50, inhibition of IL1-induced NFκB activity
reported_property: IC50 (nM)
Report the value in nM with no unit label.

Completed entries (count: 2):
molecule	u	val
74804_27I24A: anti-IL1RAP mAb; VH SEQ ID NO:13, VL SEQ ID NO:29, λ light chain (antibody, V domains shown, 74804_27I24A VH; 74804_27I24A VL) VH: EVQLVESGGGLVKPGGSLRLSCAASGFTFITYSMNWVRQAPGKGLEWVSSISSISSYIYYADSVKGRFTISRDNAKNSLYLQMDSLRAEDSAVYYCAREGIVGPTGYFDSWGQGTLVTVSS VL: QSVLTQPPSVSAAPGQKVTISCSGSSSNIGNHYVSWYQQLPGTAPKLLIYDNNKRPSGIPDRFSGSKSGTSATLGITGLQTGDEADYYCGTWDSRLSAYWVFGGGTKLTVL	nM	1.96
74804_45C18A: anti-IL1RAP mAb; VH SEQ ID NO:11, VL SEQ ID NO:27, κ light chain (antibody, V domains shown, 74804_45C18A VH; 74804_45C18A VL) VH: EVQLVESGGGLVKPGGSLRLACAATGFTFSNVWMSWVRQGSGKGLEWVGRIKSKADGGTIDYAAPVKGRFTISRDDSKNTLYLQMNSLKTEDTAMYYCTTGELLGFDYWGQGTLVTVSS VL: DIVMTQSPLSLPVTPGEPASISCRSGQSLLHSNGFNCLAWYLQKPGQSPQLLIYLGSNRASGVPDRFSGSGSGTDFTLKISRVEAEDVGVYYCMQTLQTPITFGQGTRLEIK	nM	0.193

Next up:
Fill in: IC50 of 74804_18L05A: anti-IL1RAP mAb; VH SEQ ID NO:4, VL SEQ ID NO:21, κ light chain (antibody, V domains shown, 74804_18L05A VH; 74804_18L05A VL) VH: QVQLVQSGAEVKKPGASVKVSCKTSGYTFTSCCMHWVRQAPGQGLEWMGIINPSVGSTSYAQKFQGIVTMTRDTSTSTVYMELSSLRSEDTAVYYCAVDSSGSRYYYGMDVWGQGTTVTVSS VL: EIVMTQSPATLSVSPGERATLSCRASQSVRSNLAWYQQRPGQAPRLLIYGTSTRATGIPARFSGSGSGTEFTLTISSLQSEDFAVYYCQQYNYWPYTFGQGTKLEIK is ___
1.73

Source listed as patent US20240392013A1.
